- Test system: LNCaP
- Method: WST-1 cell proliferation assay on LNCaP
- Format: cell-based
- Experimental context: Homo sapiens, 72 h, percent of untreated control cells, read-out: Remaining cell proliferation (%) LNCaP
Quantity measured: activity at 10 µM (%)
Write the number in % without appending the unit.

Summary for this compound, Cc1ncccc1COC12C3=CC(C)CC1CCC2OC3=O (stereo in doubt) : activity at 10 µM is 54.5

Summary for this compound, COc1ncccc1COC12C3=CC(C)CC1CCC2OC3=O (stereo in doubt) : activity at 10 µM is 59.3

Summary for this compound, Cc1ccc(COC23C4=CC(C)CC2CCC3OC4=O)cn1 (stereo in doubt) : activity at 10 µM is 63.2

Summary for this compound, C[C@@H]1C=C2C(=O)O[C@@H]3CCC(C1)[C@]23OCc1ccc(N2CCOCC2)nc1 (some centres unmarked) : activity at 10 µM is 76.1

Summary for this compound, C[C@@H]1C=C2C(=O)O[C@@H]3CC[C@H](C1)[C@]23O [Galiellalactone, (−)-Galiellalactone] : activity at 10 µM is 43.6

Summary for this compound, Cc1cnc(COC23C4=CC(C)CC2CCC3OC4=O)cn1 (stereo in doubt) : activity at 10 µM is 55.5

Summary for this compound, CC1C=C2C(=O)OC3CCC(C1)C23OCCc1cccnc1 (stereo in doubt) : activity at 10 µM is 68.6

Summary for this compound, C[C@@H]1C=C2C(=O)O[C@@H]3CCC(C1)[C@]23OCc1ccc(NC(=O)C(C)(C)C)nc1 (some centres unmarked) : activity at 10 µM is 67.6

These measurements were taken from patent US10351577B2.
